- System: mTORC1 signaling
- methodNotes: MEF TSC1−/− cell-based assay for rapalog potency (pS6)
- Set-up: species or system Mouse
- statedConditions: Mus musculus, MEF TSC1−/− cells; average from multiple assays
- Experimental: Cell-based assay for rapalog potency determination. Rapalog potency was determined using MEF TSC1−/− cell based assay. […] MEF TSC1−/− cells were plated on Poly-D-lysine coated 384 well Griener clear bottom plates and incubated overnight at 37° C., 5% CO2. […] Cells were imaged (InCell 600) using respective fluorescence channels and the potency of mTOR inhibitors was defined by pS6 IC50 (nM). […]
This listing pairs compounds with measured pIC50.
// field semantics: pIC50 = negative decimal log of concentration (mol/L)

Look over these answered cases.
{"compound": "CO[C@H]1C[C@@H]2CC[C@@H](C)[C@@](O)(O2)C(=O)C(=O)N2CCCC[C@H]2C(=O)O[C@H]([C@H](C)C[C@@H]2CC[C@H](n3cnnn3)[C@H](OC)C2)CC[C@H](C)/C=C(\\C)[C@@H](O)[C@@H](OC)C(=O)[C@H](C)C[C@H](C)/C=C/C=C/C=C/1C [Intermediate 5]", "pIC50": 9.97}
{"compound": "CO[C@@H]1C[C@H](C[C@@H](C)[C@@H]2CC[C@H](C)/C=C(\\C)[C@@H](O)[C@@H](OC)C(=O)[C@H](C)C[C@H](C)/C=C/C=C/C=C(\\C)[C@H](N3CCCS3(=O)=O)C[C@@H]3CC[C@@H](C)[C@@](O)(O3)C(=O)C(=O)N3CCCC[C@H]3C(=O)O2)CC[C@H]1O", "pIC50": 9.56}
{"compound": "CO[C@@H]1C[C@H](C[C@@H](C)[C@@H]2CC[C@H](C)/C=C(\\C)[C@@H](O)[C@@H](OC)C(=O)[C@H](C)C[C@H](C)/C=C/C=C/C=C(\\C)C(N3CCS3(=O)=O)C[C@@H]3CC[C@@H](C)[C@@](O)(O3)C(=O)C(=O)N3CCCC[C@H]3C(=O)O2)CC[C@H]1OP(C)(C)=O (single isomer, unassigned) [Example 10]", "pIC50": 9.25}

Query compound follows.
Query: Need pIC50, item CO[C@H]1C[C@@H]2CC[C@@H](C)[C@@](O)(O2)C(=O)C(=O)N2CCCC[C@H]2C(=O)O[C@H]([C@H](C)C[C@@H]2CC[C@@H](OP(C)(C)=O)[C@H](OC)C2)CC[C@H](C)/C=C(\C)[C@@H](O)[C@@H](OC)C(=O)[C@H](C)C[C@H](C)/C=C/C=C/C=C/1C [Intermediate 4]
Response: 10.18
